target: E1E2 of HCV isolate AMS.4d.20875969 (genotype 4d) (Hepatitis C virus genotype 4d); test: cell-based or functional assay
Attribute measured: IC50, HCVpp neutralization (µg/mL)
Numeric answer only, unit µg/mL assumed.

Identify measured IC50, HCVpp neutralization corresponding to AT12-009 (antibody, V domains shown) VH: SSVRVSCKASGDTFKTHAISWVRQAPGQGLEWVGGTVRQAPGDGLELLGGFVPILAPANDAQKFQGRVTITADGSTGPVYMDLSTLTSEDTAMYYCVTSLSEPIPRSCRGGRCYSGPFDAFGVWGQGTMVTVSS VL: ETMLTQSPVTLSVSPGERATLSCRASQSIGTNLAWYQQKPGQAPRLLIHGASTRATGVPVSFSGSGSGTEFTLTISSLQSEDFAVYYCQQYNNWPLTFGGGTKVDFKR
0.72
